# Test system: OCI-AML2
# Method Notes: cell viability relative to vehicle control; higher = less cytotoxic;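 note: after 48 h exposure read by CellTiter-Glo luminescence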
# Test Settings: 10 µM; SRSF2 genotype: wt/wt
// NB: equality with 90% counts as Criterion not met; only cell viability strictly below is Criterion met

Would you please look over these solved cases?
Input line: Confirm or reject: cell viability of CC(=CCNc1ncnc2nc[nH]c12)CO [Trans-Zeatin] lies strictly below 90%
Output line: Criterion not met

Input line: Confirm or reject: cell viability of CN(C)CCCCC(=O)Nc1ccc(NC(=S)NC(=O)c2ccc(C(C)(C)C)cc2)cc1 [Tenovin-6] lies strictly below 90%
Output line: Criterion met

Input line: Confirm or reject: cell viability of Cc1c(C(=O)Nc2ccc(Oc3ccnc4[nH]cc(-c5ccccc5)c34)c(F)c2)c(=O)n(-c2ccc(F)cc2)n1C lies strictly below 90%
Output line: Criterion met

Input line: Confirm or reject: cell viability of O=C(CCc1ccc(O)cc1)c1c(O)cc(O[C@@H]2O[C@H](CO)[C@@H](O)[C@H](O)[C@H]2O)cc1O [Trilobatin] lies strictly below 90%
Output line: Criterion not met

Input line: Confirm or reject: cell viability of Cc1cc(F)c(Nc2ncnc3cc(OCc4ccccc4)ccc23)cc1O lies strictly below 90%
Output line: Criterion met

Now take the following compound into account.
Input line: Confirm or reject: cell viability of NC(=O)c1cnccn1 [Pyrazinamide (Pyrazinoic acid amide)] lies strictly below 90%
Output line: Criterion not met

----------
# System: OCI-AML2
# Method Notes: cell viability relative to vehicle control; higher = less cytotoxic
# Test Settings: 10 µM; SRSF2 genotype: wt/wt
Property Measured: cell viability (%)
Answers are plain numbers, in %.

Examples with answers:
Entry CCOC(=O)COc1ccc(/C=C2/SC(=S)NC2=O)cc1OC ; cell viability = 91.8

Entry COc1ccnc(C[S+]([O-])c2nc3cc(-n4cccc4)ccc3[nH]2)c1C (stereo not given) [Ilaprazole] ; cell viability = 97.3

Entry OC[C@@H](O)[C@@H](O)[C@H](O)[C@@H](O)CO [Sorbitol (Glucitol)] ; cell viability = 100

For every record below, what is its cell viability?
1. CC[C@H](c1ccc(O)cc1)[C@@H](CC)c1ccc(O)cc1 [Hexestrol (Bibenzyl)]
2. C=C(c1ccc(C(=O)O)cc1)c1cc2c(cc1C)C(C)(C)CCC2(C)C [Bexarotene]

Output line:
[91.9, 63.5]

----------
# Test system: MARIMO
# Method Notes: cell viability relative to vehicle control; higher = less cytotoxic
# Test Settings: 10 µM; SRSF2 genotype: SRSF2 P95H/wt
Kindly supply the reported cell viability values for the records listed here.
Numbers only, in %.

Examples with answers:
Entry CC[C@H]1OC(=O)C[C@@H](O)[C@H](C)[C@@H](O[C@@H]2O[C@H](C)[C@@H](O)[C@H](N(C)C)[C@H]2O)[C@@H](CCN2C[C@H](C)C[C@H](C)C2)C[C@@H](C)C(=O)/C=C/C(C)=C/[C@@H]1CO[C@@H]1O[C@H](C)[C@@H](O)[C@@H](OC)[C@H]1OC [Tilmicosin phosphate] ; cell viability = 98

Entry O=C(O)C1=CO[C@@H](O[C@@H]2O[C@H](CO)[C@@H](O)[C@H](O)[C@H]2O)[C@@H]2C(CO)=CC[C@H]12 ; cell viability = 89.8

Would you kindly look at the next entry?
Entry COc1cc(/C=C/C(=O)O[C@H]2[C@H](O)[C@@H](CO)O[C@@]2(CO)O[C@H]2O[C@H](CO)[C@@H](O)[C@H](O)[C@H]2O)ccc1O ; cell viability = 108
